B1: Segment polarity protein dishevelled homolog DVL-3, residues 2 to 81; numbered along this chain, Q92997 (parent)
chain: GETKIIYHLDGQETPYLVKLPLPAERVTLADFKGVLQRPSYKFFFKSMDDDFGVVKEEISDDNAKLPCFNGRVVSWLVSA

variants of: B1; test: abundance fitness (aPCA) (normalised: wild type 0, dead -1); higher = more abundant; growth selection in yeast, the domain comes from the species named; details: Homo sapiens
Definition: the class of an entry is the range in low interval (below -0.6), middle interval (-0.6 to below -0.2), high interval (-0.2 or more) that contains its abundance fitness.

>>> print(df.to_string())
   alteration       classlabel
0        E25W  middle interval
1        G34A    high interval
2        W76R     low interval
3        Y41S     low interval
4        V35C    high interval

Tag the class for V27R
low interval

Class (by measured abundance fitness) for C68D
low interval

Quick check: band for L77I
middle interval

# bin label for F52A
high interval

State the band of K33S
middle interval

Assign a bin to D31Q
low interval

Form field 'band' for L66F
middle interval
